Every entry's value here was drawn from ChEMBL document CHEMBL1201862.

Test system: HOP-62
Protocol Text: NCI tumour cell line growth inhibition, 48 h
Active and inactive are the calls of the source. Cut-off read from the data, not from the text of the source: active = GI50 up to about 1.1 µM and inactive = higher.
Provide the reported GI50 of each item.

Retrieve GI50 measured for CC(C)CCCC(C)C1CCC2C3CC([N+](=O)[O-])=C4CC(O)CCC4(C)C3CCC12C (stereo not drawn) and print it.
19.9 µM (inactive)

Retrieve GI50 measured for `CCn1cnc2c(=S)nc(N)[nH]c21` and print it.
> 100 µM (inactive)

Retrieve GI50 measured for Cc1c(C#N)c(N)n(C2OC(CO)C(O)C(O)C2O)c(=S)c1C#N (stereo not drawn) and print it.
> 100 µM (inactive)

Retrieve GI50 measured for `COc1cccc(Nc2nc(-c3cccs3)nc3cc(OC)c(OC)cc23)c1` and print it.
27.8 µM (inactive)

Retrieve GI50 measured for Nc1ncnc2oc(C3OC(COC(=O)c4ccccc4)C(OC(=O)c4ccccc4)C3OC(=O)c3ccccc3)nc12 (stereo not drawn) and print it.
> 100 µM (inactive)

Retrieve GI50 measured for CC(=O)OC1(C(C)=O)CC2(c3ccccc3)OC1(c1ccccc1)c1ccccc12 (stereo not drawn) and print it.
11.6 µM (inactive)

Retrieve GI50 measured for COc1ccc2c3c([nH]c2c1[N+](=O)[O-])C(C)N(C(=O)/C=C/c1ccccc1)CC3 (stereo not drawn) and print it.
5.28 µM (inactive)

Retrieve GI50 measured for S=C1OC2C3C4CC5C3C(O1)C1C5C4C21 (stereo not drawn) and print it.
> 100 µM (inactive)

* * *

Tested on: PC-3
Protocol Text: NCI tumour cell line growth inhibition, 48 h
Calls of active or inactive are those of the source. Rule as the data show it: active = GI50 up to about 1.1 µM and inactive = higher.
Would you mind answering with one of these outcomes? active, inactive

Field: outcome | Entry: COC1OC(C)/C(=N/O)C2OC(C)(C)OC12 (configuration not stated)
inactive

Field: outcome | Entry: `Nc1nc(O)c2nc3c(nc2n1)C(=O)N(c1ccc(C(=O)O)cc1)C3`
inactive

Field: outcome | Entry: COc1cccc(N(CN2C(=O)CCC2C(=O)O)C(C)=O)c1 (configuration not stated)
inactive

Field: outcome | Entry: `O=C(Nc1ccccc1)c1cc2ccccc2c(/N=N\c2cccc([N+](=O)[O-])c2)c1O`
inactive

Field: outcome | Entry: `CO[C@H]1C[C@@H]2CC[C@@H](C)[C@@](O)(O2)C(=O)C(=O)N2CCCC[C@H]2C(=O)O[C@H]([C@H](C)C[C@@H]2CC[C@@H](OC(=O)C(C)(CO)CO)[C@H](OC)C2)CC(=O)[C@H](C)/C=C(\C)[C@@H](O)[C@@H](OC)C(=O)[C@H](C)C[C@H](C)/C=C/C=C/C=C/1C`
active

Field: outcome | Entry: COc1cc(C2c3cc4c(cc3[C@H](OCCN(C)C)[C@@H]3COC(=O)C23)OCO4)cc(OC)c1O (some centres not stated)
active

Field: outcome | Entry: `C#CCn1c(=O)ccn(/C(=C\C(=O)OCC)C(=O)OCC)c1=O`
inactive

Field: outcome | Entry: Cc1ccc(S(=O)(=O)N/N=C2\CCC3(O)CC2(C)CCC2C3CC2(C)C)cc1 (configuration not stated)
inactive

Field: outcome | Entry: `COc1ccc(/C=C/c2nsc(/C=C/c3ccc(OC)cc3)n2)cc1`
inactive

Field: outcome | Entry: `O=c1cc(-c2cc(O)c(O)c(-c3c(O)cc4oc(-c5ccc(O)c(O)c5)cc(=O)c4c3O)c2)oc2cc(O)cc(O)c12`
inactive

Field: outcome | Entry: NC(CCCCCCCCCCP(=O)(O)O)C(=O)O (configuration not stated)
inactive

Field: outcome | Entry: CCOC(=O)N1CC2(C(=O)OC)C=CC1C(C(=O)OC)C2 (configuration not stated)
inactive
